# Target: T1, Human RNF43 extracellular domain (amino acids 1-190) with a Flag tag on its C terminus (human, UniProt Q68DV7 24-190)
# T1 construct: also called recombinant human RNF43; human RNF43 ECD
# T1 sequence: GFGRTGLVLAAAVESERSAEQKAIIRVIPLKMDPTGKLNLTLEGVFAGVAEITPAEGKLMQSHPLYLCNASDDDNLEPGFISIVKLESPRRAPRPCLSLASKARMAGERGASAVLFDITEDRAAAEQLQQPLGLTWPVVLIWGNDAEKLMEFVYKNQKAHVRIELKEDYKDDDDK
# Assay Explanation: SPR, Biacore T200, antibody captured by anti-human Fc, RNF43 as analyte, pH 7.4, 25 C
Experimental Endpoint: kon (M⁻¹ s⁻¹)
// units = M⁻¹ s⁻¹; emit number, no label

Example entries begin here.
Binder: RNN0275kk (antibody, human IgG1, kappa, N297A, V domains shown, Rabbit variable regions recombined with BS03aHis heavy-chain constant region and hk0MC light-chain constant region; also called anti-RNF43 monospecific antibody) VH: QSVEESGGRLVTPGTPLTLTCTVSGWTINSYHMCWVRQAPGEGLEWIATITTGGVTFYANWARGRFTISKTSTTVDLKMTSLTAADTATYFCVRGPDYTYFDLWGPGTLVTVSS VL: NVVLTQTPSSVSAAVGGTVTIKCQASQSISDTLAWYQQKPGQPPKLLIYYASDLASGVPSRFSGSGSGTEFTLTINDLECADAATYYCQSYVYSNGIDNTFGGGTKVEIKR
Meas Value: 1.99e+06
//
Binder: RNN0198oo (antibody, human IgG1, kappa, N297A, V domains shown, Rabbit variable regions recombined with BS03aHis heavy-chain constant region and hk0MC light-chain constant region; also called anti-RNF43 monospecific antibody) VH: QEQLVESGGGLVQPEGSLTLTCKASGLDFSSSYWMCWVRQAPGKGLEWIGCIYTGSSGSTYYASWAKGRFTISKTSSTTVTLQMTSLTAADTATYFCARTGSRYWNYFELWGPGTLVTVSS VL: DVVMTQTPPSVSAAVGGTVTIKCQASQSIYRGLAWYQQKPGQPPNLLIYSASTLASGVPSRFSGSGSGTEYTLTISDLECADAATYYCQSYYYSSSNGWPFGGGTKVEIKR
Meas Value: 2.63e+06
//
Binder: RNN0191kk (antibody, human IgG1, kappa, N297A, V domains shown, Rabbit variable regions recombined with BS03aHis heavy-chain constant region and hk0MC light-chain constant region; also called anti-RNF43 monospecific antibody) VH: QSLEESGGRLVTPGGSLTLTCTASGFSLSSYAIGWVRQAPGKGLEYVGIIERNDKTAYASWAKGRFTISRTSTTVDLKMTSLTTEDTATYFCARGYLDNSPLWGPGTLVTVSS VL: AIEMTQTPASVSAAVGGTVTINCQSSQSVGDNIWLGWYQQKPGQPPKLLIRYASTLASGVPSRFKGSGSGTQFTLTISDLECDDAATYYCAGAYNGLIYSFGGGTKVEIKR
Meas Value: 4.14e+06

As a next step, examine the binder that follows.
In: What measured kon goes with RNN0276oo (antibody, human IgG1, kappa, N297A, V domains shown, Rabbit variable regions recombined with BS03aHis heavy-chain constant region and hk0MC light-chain constant region; also called anti-RNF43 monospecific antibody) VH: QSVEESGGRLVTPGTPLTLTCTVSGFSLSSYAMNWVRQAPGKGLEWIGVIGSSGRTYYASWAKGRFTSSKTSTTVVLKITSPTTEDTATYFCARGPYDSYGDGGVTGDLWGPGTLVTVSS VL: AQVLTQTPSPVSAAVGGTVTINCQSSQSVYNNNNLAWYQQKPGQPPKLLIYRASTLASGVPSRFKGSGSGTQFTLTISGVQCEDAATYYCQGGYDCSSADCDTFGGGTKVEIKR ?
Out: 193000

Cited source for all entries: patent US20240239890A1
